Data origin: the supplement of paper PMC12764529

ASSAY: folding stability dG unfold (combined trypsin and chymotrypsin); higher = more stable
QUANTITY_KIND: folding stability dG unfold (kcal/mol)

biosequence="SAGGSAGGSAGDNGKPEVKPVRIPIFIPGPKEQAKRIANYLYGFGMPIDVEVFDPDGKPISAGGSAGGSAGG [r11_703_TrROS]" quantity_kind="folding stability dG unfold" readout_relation=< reported_measurement=-1
biosequence="SAGGSAGGSEVTEFTGTIEDPNSSTVIEVKTKVIPLPNGTPVTITETTTTTGEKTTTTTTTFASAGGSAGGS [r12_619_JUSTAS]" quantity_kind="folding stability dG unfold" readout_relation=< reported_measurement=-1
biosequence="SAGMPESEVIPLPDGSVVEVRRWPDSELRFVFPPGGPATVERHDTRTGTVETTPVSAADPEAAAAAVLASAG [r5_674_JUSTAS]" quantity_kind="folding stability dG unfold" readout_relation=< reported_measurement=-1
biosequence="SAGGSAGGSAGGPPVTLLVVVRNEDGSLYLVRVEFDLETNEVKVEVFTLDDLKNLPEELSAGGSAGGSAGGS [r10_1077_TrROS_Hall]" quantity_kind="folding stability dG unfold" readout_relation== reported_measurement=3.26
biosequence="SAGIVIPINNPEQAEELAKEFAPEYGYEVEIERVPPGEPLEELPPNDIIVHDPDSGWFYKIKIKRPDEKSAG [r5_173_TrROS]" quantity_kind="folding stability dG unfold" readout_relation== reported_measurement=0.29
biosequence="SAGGSAGGSADPPRSVLKEERSPDGTTTYKLLEYPGERVLVVTRTPPDGTEEVVLIPEEELSAGGSAGGSAG [r3_167_JUSTAS]" quantity_kind="folding stability dG unfold" readout_relation== reported_measurement=0.231

---

ASSAY: folding stability dG unfold (combined trypsin and chymotrypsin); higher = more stable
Reported folding stability dG unfold values follow for various sequences
QUANTITY_KIND: folding stability dG unfold (kcal/mol)

biosequence="SAGGSAGGEISFDPETGKLTILAPSSISPDAIKKAIEEAGIPFKITSVSYIPDPKTLKVEYEISSAGGSAGG [r6_395_TrMRF]" measurement_unit=kcal/mol reported_measurement=0.719
biosequence="SAMPKPALTIEIPLPNGQTVRIDVYYDPETGTYTVNVTRTLPNGEPFTRTYTVESPEEAIKNIEVTDFGSAG [r14_749_TrMRF]" measurement_unit=kcal/mol reported_measurement=3.24
biosequence="SAGGSAGGGSSITPVEVTPLPEDKYRVLIRITTYLPGGKPRTEEIEVEMPPDETAEEAAARVLSSAGGSAGG [r6_329_JUSTAS]" measurement_unit=kcal/mol reported_measurement=0.367
